# tgt: furin, P09958
# Sequence (P09958 whole entry): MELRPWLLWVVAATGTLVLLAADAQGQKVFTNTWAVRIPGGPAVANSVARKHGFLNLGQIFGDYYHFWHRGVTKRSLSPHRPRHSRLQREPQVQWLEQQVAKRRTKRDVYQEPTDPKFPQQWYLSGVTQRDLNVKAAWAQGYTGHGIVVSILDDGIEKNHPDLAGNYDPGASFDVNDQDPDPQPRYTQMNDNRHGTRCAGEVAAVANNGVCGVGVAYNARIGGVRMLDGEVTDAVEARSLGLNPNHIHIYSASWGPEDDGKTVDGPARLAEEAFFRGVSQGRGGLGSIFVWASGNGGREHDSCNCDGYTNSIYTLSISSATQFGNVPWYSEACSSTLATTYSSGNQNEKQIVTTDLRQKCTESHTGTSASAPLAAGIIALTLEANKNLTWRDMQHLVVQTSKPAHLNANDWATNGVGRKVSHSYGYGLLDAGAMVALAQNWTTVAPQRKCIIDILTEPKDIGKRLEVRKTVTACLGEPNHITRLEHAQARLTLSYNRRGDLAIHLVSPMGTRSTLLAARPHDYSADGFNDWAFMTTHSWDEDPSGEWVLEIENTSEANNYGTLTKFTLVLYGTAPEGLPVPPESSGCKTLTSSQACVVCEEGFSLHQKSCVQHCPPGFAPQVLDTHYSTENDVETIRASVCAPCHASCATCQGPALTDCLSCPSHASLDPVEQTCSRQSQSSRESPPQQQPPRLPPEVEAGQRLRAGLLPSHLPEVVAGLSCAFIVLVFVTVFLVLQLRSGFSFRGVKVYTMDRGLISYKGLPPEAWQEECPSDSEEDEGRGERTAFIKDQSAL
# measurement_protocol: furin cleavage Z-score vs untreated control; higher = more cleavage, active = 3.5 or more, inactive = 1 or less, 8 variable residues between constant flanks;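 also: purified furin at 1:10 enzyme:substrate in 50 mM HEPES pH 7.5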
# stated_conditions: 15 min
The other results are listed elsewhere or left out. The hit rate among all sequences tested is not known here.
Tag: fulfilled if measured furin cleavage Z-score is not below 0.3, not fulfilled if it is.

sequence_content | assigned_category
CAGPRRPMRPAGNASASA [FS-785] | not fulfilled
CARRRRHTFKAGNASASA [FS-2374] | fulfilled
CAAYAAQGYKAGNASASA [HC782] | not fulfilled
CAMEECSQHVAGNASASA [HC1770] | not fulfilled
CARVRRQIHAAGNASASA [FS-2319] | fulfilled
CARRRRAAATAGNASASA [FS-2784] | fulfilled
CAYIPRILGPAGNASASA [FS-1875] | not fulfilled
CARRGPRLGVAGNASASA [HC180] | not fulfilled
CARVRKDGGGAGNASASA [FS-2842] | fulfilled
CARSTRFAATAGNASASA [FS-2188] | not fulfilled

## Task Check the entry CASVSHARPRAGNASASA [HC1652] : does furin cleavage Z-score equal or exceed 0.3?
## Result not fulfilled

## Task Check the entry CARKKRNVNFAGNASASA [FS-3158] : does furin cleavage Z-score equal or exceed 0.3?
## Result fulfilled

## Task Check the entry CARSRRHSPHAGNASASA [FS-2462] : does furin cleavage Z-score equal or exceed 0.3?
## Result fulfilled
